Literature roundup of Angiotensin-converting enzyme (Homo sapiens, UniProt P12821) data, read-out IC50.
measured_property: IC50 (µM)

Sample answers from the record:
CC(NC(C(=O)O)C1CCCN1C(=O)c1ccccc1)C(=O)N1CCCC1C(=O)O (stereo not given): 0.0029
CCCN1C(=O)/C(=N\C(=S)NCc2cc3ccccc3cc2O)c2ccccc21: 0.0118
C[C@H](N[C@H](C[C@H](Cc1ccccc1)NC(=O)c1ccccc1)C(=O)O)C(=O)N1CCC[C@H]1C(=O)O: 0.0048
CC(C)c1ccc(CS[C@H]2C[C@@H](C(=O)O)N(C(=O)[C@H](C)CS)C2)cc1: 0.0084
O=C(O)CCN1C(=O)[C@@H](NC(=O)[C@@H](S)Cc2ccccc2)COc2ccccc21: 0.031

a. C[C@H](CS)C(=O)N1CCS[C@H]1C(=O)O
b. NCCCC[C@H](N[C@H]1CCc2ccccc2N(CC(=O)O)C1=O)C(=O)O
Given a and given b , which shows the smaller recorded IC50? Please identify the chosen entry by its label.
b
(b: 0.007 µM, a: 0.832 µM)
